Reference source: ChEMBL document CHEMBL1201862

# Test system: LOX IMVI
# protocol: NCI tumour cell line growth inhibition, 48 h
The source made the active and inactive calls. Rule as the data show it: active = GI50 up to about 1.1 µM and inactive = higher.
Choose the fitting class; nothing outside Yes for active, No for inactive is accepted.

CC(C)(C)C1=CC(O)(c2c3ccccc3c(C3(O)C=C(C(C)(C)C)C(=O)C(C(C)(C)C)=C3)c3ccccc23)C=C(C(C)(C)C)C1=O ... No
O=C1CCNC/C1=C\c1ccccc1 ... No
NC(CCSCC(F)F)C(=O)O (stereo not drawn) ... No

What call does the record list for COc1cccc2c1C(CO)N1C(C#N)C3CC(C(=O)O)C(C1C2)N3C (stereo not drawn) ?
No

Field: outcome | Entry: COC(=O)CN(CC(O)C(NC(C)=O)C(O)C=O)C(=O)OCc1ccccc1 (stereo not drawn)
No

Recorded call for `COc1cc(/C=C2/CCS(=O)(=O)c3ccc(C)cc3C2=O)cc(OC)c1OC` ?
No

Please share the test call associated with COC(=O)CN1C(=O)C2(C(=O)OC)OC1(c1ccc([N+](=O)[O-])cc1)C1C(=O)N(c3ccccc3)C(=O)C12 (stereo not drawn) .
No

What call does the record list for `C(=C/c1nnnn1-c1ccccc1)/Nc1ccccc1` ?
No

For `c1ccc(/N=C(\N2CCOCC2)N(CCN2CCOCC2)c2ccccc2)cc1` , which call appears in the assay record?
No

Per the assay record, what outcome was assigned to C[C@@H](CC(=O)OCc1ccccc1)OC1OC(COC(=O)C(C)(C)C)C(OC(=O)C(C)(C)C)C(OC(=O)C(C)(C)C)C1OC(=O)C(C)(C)C (stereo partly drawn) ?
No

I would be grateful if you could indicate the recorded call for `CCOC(=O)/C(=C\NC(C)(C)C)c1nc2ccccc2[nH]1` .
No

# outcome recorded in this test, key = COC1(c2cccs2)c2ccccc2C(OC)(c2cccs2)c2ccccc21 (stereo not drawn)
No

How was `CC(=O)N(CCN1C(=O)c2ccccc2C1=O)CCN1C(=O)c2ccccc2C1=O` classified in this test?
No

Dear colleague, could you share the recorded outcome for COc1ccc(-c2cc(C(O)C3CCCCN3)c3ccccc3n2)cc1 (stereo not drawn) when you have a moment?
No

Short answer needed: outcome of this test for `C/C(=N\NC(=S)NCc1ccccc1)c1nc2cccnc2[nH]1` ?
No

In this assay, the call recorded for `Cn1c(=O)c2c(no[n+]2[O-])c2ccccc21` was what?
No

Test call, this compound: `COC(=O)N/N=C(/Cc1occc(=O)c1O)C(=O)Nc1ccc([N+](=O)[O-])cc1[N+](=O)[O-]`
No

Please state the recorded outcome for this compound: `c1c[nH]c(Cc2nc(Cc3c[nH]cn3)c[nH]2)n1`
No

Dear all, I need the recorded test outcome for `Cc1ccc(NC(=O)c2cccc([N+](=O)[O-])c2O)c([N+](=O)[O-])c1` , thank you.
No

Dear all, I need the recorded test outcome for `COc1ccc(/C=N/N=C(\N)NO)c(OC)c1` , thank you.
No
